tested on: KM-20L2; test: NCI tumour cell line growth inhibition, 48 h
The source made the active and inactive calls. No stated cut-off is given here; in the data, active = GI50 up to about 1.1 µM and inactive = higher.
Outcomes: 1 (active), 0 (inactive)

molecule	target.or.system	class
COC(=O)[C@@]1(C)/C(=N/NS(=O)(=O)c2ccc(C)cc2)CCC[C@@H]1C	KM-20L2	0
O=C(NNC(=O)c1nsc2ccccc12)c1ccc(Cl)cc1	KM-20L2	0
CC(CCC(=O)O)c1ccc(Br)cc1 (centres undefined)	KM-20L2	0
CCc1nc(N)nc(C(=O)NCCNC(=O)c2nc(N)nc(CC)c2C)c1C	KM-20L2	0
COc1ccc2nc(NC(=O)C(=O)C(C#N)c3ccc([N+](=O)[O-])cc3)sc2c1 (centres undefined)	KM-20L2	0
CCCC/C=C/C1Cc2ccccc2CN1S(=O)(=O)c1ccc(C)cc1 (centres undefined)	KM-20L2	0
C/C(CC(=O)Nc1ccc(Cl)cc1)=N\NC(N)=S	KM-20L2	0
[O-][N+]1=C(c2ccccc2)COc2ccccc21	KM-20L2	0
C=CC[C@@]1(C#N)C[C@H](C[C@]2(C#N)C[C@H](CCl)OC(C)(C)O2)OC(C)(C)O1	KM-20L2	0
COc1cc(OC)c(/C=C2\N=C(C)N(Nc3nnc(NN4C(=O)/C(=C/c5c(OC)cc(OC)cc5OC)N=C4C)c4ccccc34)C2=O)c(OC)c1	KM-20L2	0
O=C(CCC(=O)Nc1ccc(Cl)c(Cl)c1)Cc1nc2ccccc2o1	KM-20L2	0
NCCn1cnc2nc(NC(=O)c3ccccc3)[nH]c(=O)c21	KM-20L2	0
NC(=S)N1N=C2c3ccccc3CC[C@H]2[C@@H]1c1cccs1	KM-20L2	0
Cc1c2cc[n+](C)cc2c(C)c2c1[nH]c1ccc(Oc3ccccc3)cc12	KM-20L2	1
